Cited source for all entries: paper PMC6891555

System: NO production in LPS-treated RAW 264.7 cells
Experiment: Inhibition of NO production (Griess reaction) in LPS-treated RAW 264.7 macrophages
Assay type: cell-based, mouse
Details: Mus musculus, RAW264.7; LPS (100 ng/mL, 48 h)-treated RAW 264.7 cells, 1 h pre-treatment, Griess reaction, vs vehicle Carbowax 400
pIC50: −log10 of the molar value.
Each entry below carries its recorded pIC50.
Measurement label: pIC50

>>> reading("CC[C@@H]1O[C@@H]2C[C@@H]3O[C@@H]3C[C@H](C=C=CBr)O[C@@H]2C[C@H]1Br (relative stereo)")
4.88
>>> reading("CCC1OC2CC3OC3CC(C=C=CBr)OC2CC1Br (centres unmarked)")
4.58
>>> reading("CC[C@@H]1O[C@@H]2C/C=C\\C[C@H](C=C=CBr)O[C@@H]2C[C@H]1Br (relative stereo)")
5.38
>>> reading("CCC1OC2CC(C(O)CC(Cl)C=C=CBr)OC2CC1Br (centres unmarked)")
4.91
>>> reading("C#C/C=C\\CC(Br)[C@H]1C[C@H]2O[C@@H](CC)[C@H](Br)C[C@H]2O1 (relative stereo)")
4.43
>>> reading("CC(=O)OC(C)(C)C1CCC(C)(C(O)CCC(C)(O)C2CCC3OC(C4(C)CCC(Br)C(C)(C)O4)CCC3(C)O2)O1 (centres unmarked)")
8.58
>>> reading("CCC(Br)C1CC2OC(C=C=CBr)CC=CCC2O1 (centres unmarked)")
5.40

====

Test: Cytotoxicity by MTT assay in RAW 264.7 macrophages
Type: cell-based, mouse
Details: mouse, 72 h of treatment
Method: The IC50 values for the inhibition of NO production were determined in LPS-treated RAW 264.7 cells in comparison to cells treated with the vehicle (Carbowax 400) only (Table 3, Figure S1). To verify that the anti-inflammatory activity observed was not due to cytotoxic effect, the potential cytotoxicity of 1–6, 8, 10 and 11 was evaluated using the MTT assay following 24, 48 and 72 h of treatment in RAW 264.7 macrophages (Table 3, Figure S2). […]
Measurement label: IC50 at 72 h

>>> reading("CCC1OC2CC(C(O)CC(Cl)C=C=CBr)OC2CC1Br (stereo not drawn)")
"> 15.6 µM"
>>> reading("CC[C@@H]1O[C@@H]2C[C@@H]3O[C@@H]3C[C@H](C=C=CBr)O[C@@H]2C[C@H]1Br (relative stereo)")
"> 31.2 µM"
>>> reading("CC(C)(O)[C@H]1CC[C@](C)([C@@H](O)CC[C@](C)(O)[C@H]2CC[C@H]3O[C@@H]([C@]4(C)CC[C@@H](Br)C(C)(C)O4)CC[C@]3(C)O2)O1")
"> 0.1 µM"

====

System: RAW 264.7 macrophages
Test: Cytotoxicity by MTT assay in RAW 264.7 macrophages
Type: cell-based, mouse
Details: 72 h following treatment
Measurement label: concentration above which cytotoxicity was observed

>>> reading("CCC1OC2CC3OC3CC(C=C=CBr)OC2CC1Br (stereo not drawn)")
"higher than 15.62 μM"
>>> reading("CCC1OC2CC(C(O)CC(Cl)C=C=CBr)OC2CC1Br (stereo not drawn)")
"higher than 15.62 μM"
>>> reading("CC[C@@H]1O[C@@H]2C[C@@H]3O[C@@H]3C[C@H](C=C=CBr)O[C@@H]2C[C@H]1Br (relative stereo)")
"> 31.25 µM"
>>> reading("CC[C@@H]1O[C@@H]2C/C=C\\C[C@H](C=C=CBr)O[C@@H]2C[C@H]1Br (relative stereo)")
"higher than 15.62 μM"
>>> reading("C#C/C=C\\CC(Br)[C@H]1C[C@H]2O[C@@H](CC)[C@H](Br)C[C@H]2O1 (relative stereo)")
"higher than 15.62 μM"
>>> reading("CCC(Br)C1CC2OC(C=C=CBr)CC=CCC2O1 (stereo not drawn)")
"≥ 7.81 µM"
